Measurement name: melting point

Problem: GET /values?readout=melting point&item= `Cc1cc(C)c(CNc2cccc(S(=O)(=O)O)c2)c(C)c1`
Solution: > 275 °C

Problem: Do the same for `COc1cc(N2CCN(C[C@H](C)O)CC2)ccc1Nc1ncc2ccc(-c3cc(Cl)ccc3OC)n2n1` please
Solution: 163 to 166 °C

Problem: Do the same for `Cc1cccc(-c2n[nH]cc2-c2ccc(F)c(-c3ccc(S(N)(=O)=O)c(C(F)(F)F)c3)c2)n1` please
Solution: 107 to 110 °C

Problem: Do the same for `CNC(=O)Oc1ccc(N=Cc2ccccc2O)c2ccccc12` please
Solution: 143 to 146 °C

Problem: Do the same for CC(CNCc1ccccc1O)NCc1ccccc1O (stereo not drawn) please
Solution: 57 to 58 °C

Problem: Do the same for `N#CCNC(=O)c1ccnc(F)c1` please
Solution: 124 to 125 °C

Problem: Do the same for `CC(C)c1ccc(S(=O)(=O)n2c(CCCC(=O)O)cc3cc(Cl)ccc32)cc1` please
Solution: 148 °C

Problem: Do the same for `O=[N+]([O-])c1ccccc1SN1CCN(C2CC2)CC1` please
Solution: 100 to 102 °C

Problem: Do the same for `COc1ccc(Cl)cc1-c1c(NCn2nnc3ccccc32)c(=O)[nH]c2ccc(C(F)(F)F)cc12` please
Solution: 217 to 219 °C

Problem: Do the same for `CC(C)n1nc(-c2c(-c3ccccc3)nn3ccc(O)cc23)ccc1=O` please
Solution: > 250 °C

Problem: Do the same for `CC1=C(C)C(=O)N(OC(=S)N(C)C)C1=O` please
Solution: 135 to 138 °C

Problem: Do the same for `CC1(C)C=Cc2ccc(F)c(C#N)c2O1` please
Solution: 99 to 101 °C

Problem: Do the same for `O=C(O)c1cccc(-c2nc(-c3cccc(C(F)(F)F)c3)cs2)c1` please
Solution: 229 to 230 °C

Problem: Do the same for `CC(C)(C)NC(=O)[C@@H]1CNNC1=O` please
Solution: 175 to 178 °C

Problem: Do the same for `CCc1nn(C(=O)NS(=O)(=O)c2ccccc2C(=O)OC)c(=O)n1C` please
Solution: 131 °C

Problem: Do the same for `COCCCn1c(C(=O)O)cc2c3c(c(-c4ccccc4Cl)cc21)C(=O)NC3=O` please
Solution: 272 to 274 °C

Problem: Do the same for `CCn1cc(C(=O)O)c(=O)cc1-c1ccc(NC)c(C)c1` please
Solution: 243 to 244 °C

Problem: Do the same for O=C(Cc1ccccc1Cl)N[C@H]1C[C@H](C(=O)O)Nc2cc(Cl)cc(Cl)c21 (relative stereo) please
Solution: 244 to 245 °C

Problem: Do the same for `CS(=O)(=O)Cc1cccc(-c2nc(=O)c3ccccc3s2)n1` please
Solution: 230 to 232 °C

Problem: Do the same for `CCc1ccccc1NC=C1C(=O)N(c2cccc(C#N)c2)N=C1C` please
Solution: 211 °C

Problem: Do the same for `CC(C)(C)c1cc(-c2n[nH]c(=O)s2)cc(C(C)(C)C)c1O` please
Solution: 229 °C

Problem: Do the same for `CNC(=NC#N)NCCCCc1csc(NC(=N)N)n1` please
Solution: 165 to 168 °C

Problem: Do the same for `ON=C1CSc2ccccc2CN1` please
Solution: 208 to 210 °C

Problem: Do the same for `Cc1cc(F)cc([N+](=O)[O-])c1N` please
Solution: 111 to 113 °C

Problem: Do the same for `OCc1cnoc1-c1ccc(-c2ccccc2)cc1` please
Solution: 108 to 110 °C

Problem: Do the same for `O=c1[nH]cnc2ccc(S(=O)(=O)Cl)cc12` please
Solution: > 400 °C

Problem: Do the same for `O=C(NCC(F)(F)F)C1(CCCCc2ccc(NS(=O)(=O)c3ccc([N+](=O)[O-])cc3)cc2)c2ccccc2-c2ccccc21` please
Solution: 136 to 138 °C

Problem: Do the same for Cc1oc(-c2ccccc2)nc1CC#Cc1ccc(CC(C(=O)O)c2ccc(-c3ccccc3)cc2)cc1 (stereo not drawn) please
Solution: 163 to 165 °C

Problem: Do the same for CCC(C)[C@H](NC(=O)OCC1CCCC1)C(=O)N[C@@H](Cc1ccccc1)C(=O)CSCc1ccco1 (stereo partly drawn) please
Solution: 77 to 78 °C

Problem: Do the same for `Brc1c[nH]c(CN2CCCC2)c1` please
Solution: 96 to 99 °C

Problem: Do the same for `Cc1c(C(=O)Nc2ccc(N3CCCN(CCO)CC3)c(C#N)c2)cnn1-c1ccc(F)cc1` please
Solution: 124 °C

Problem: Do the same for `C=CCc1cc(N2CCN(c3ccncc3)CC2)ccc1O` please
Solution: 180 to 182 °C

Problem: Do the same for NC(=O)[C@H]1CCCCCC[C@H](CS)C(=O)N1 (relative stereo) please
Solution: 185 to 192 °C

Problem: Do the same for `Cn1c(C(F)(F)F)nn(-c2cc(O)c(C#N)cc2F)c1=O` please
Solution: 208 °C

Problem: Do the same for CC1COC(c2nsc3ccc(-n4c(=O)cc(C(F)(F)F)n(C)c4=O)cc23)O1 (stereo not drawn) please
Solution: 81 to 83 °C

Problem: Do the same for CC(=O)N1CC(=O)N2CCc3ccccc3C2C1 (stereo not drawn) please
Solution: 144 to 145 °C

Problem: Do the same for CC1CCNc2nc3ccc([N+](=O)[O-])cc3n21 (stereo not drawn) please
Solution: 172 to 178 °C

Problem: Do the same for `CCC/C=C\c1nc(Cl)c(CO)n1Cc1ccc(-c2ccccc2)c(C(=O)O)c1` please
Solution: 148 to 150 °C
